tested on: NNMT (hNNMT) (Homo sapiens, UniProt P40261)
Construct: wild type, N-terminal His6 tag kept (no cleavage described), E. coli, construct 31248 Da
Sequence (P40261 whole entry): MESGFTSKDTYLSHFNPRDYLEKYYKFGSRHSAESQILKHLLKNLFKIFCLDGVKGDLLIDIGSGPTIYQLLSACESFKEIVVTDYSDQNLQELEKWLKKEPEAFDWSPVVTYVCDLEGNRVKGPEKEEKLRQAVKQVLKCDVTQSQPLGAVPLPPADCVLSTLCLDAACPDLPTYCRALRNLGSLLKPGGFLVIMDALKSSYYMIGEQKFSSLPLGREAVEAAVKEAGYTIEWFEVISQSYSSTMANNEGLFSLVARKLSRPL
Parameters: Intact protein LC/MS covalent labelling, fragments in pools of five, 200 uM each, 4 °C
cond: 24 h, 4 °C, pool of five; 200 µM; covalent
Label True when NNMT is strictly below 0.2; otherwise label False.

Would you kindly verify if NNMT of O=C1CN(C(=O)CCl)C2(CCCCC2)C(=O)N1 is strictly less than 0.2?
True

Quick check: NNMT of Cc1cc(NC(=O)CCl)n(-c2ccccc2F)n1 under 0.2?
True

Would you kindly verify if NNMT of N#CCc1ccc(NC(=O)CCl)cc1 is strictly less than 0.2?
False

Is NNMT strictly under 0.2 for the entry Cc1ccc(NC(=O)CCl)cc1Br ?
False

Dear reviewer, please state whether COc1ccc(C2=CCN(C(=O)CCl)CC2)cc1 has NNMT strictly beneath 0.2.
False

Would you kindly verify if NNMT of CC1CCC(N(C(=O)CCl)C2CC2)CC1 (stereo not drawn) is strictly less than 0.2?
False
